- method summary: total protein half-life in vivo (active degradation + dilution); higher = more stable protein
- condition: wild type E. coli NCM3722; growth: P-lim chemostat; doubling time 12 h
Give measured total protein half-life in vivo for each item. Keep answers brief.
Please give a number only; it is taken to be in h.

# sequence MNKVVLLCRPGFEKECAAEITDKAGQREIFGFARVKENAGYVIYECYQPDDGDKLIRELPFSSLIFARQWFVVGELLQHLPPEDRITPIVGMLQGVVEKGGELRVEVADTNESKELLKFCRKFTVPLRAALRDAGVLANYETPKRPVVHVFFIAPGCCYTGYSYSNNNSPFYMGIPRLKFPADAPSRSTLKLEEAFHVFIPADEWDERLANGMWAVDLGACPGGWTYQLVKRNMWVYSVDNGPMAQSLMDTGQVTWLREDGFKFRPTRSNISWMVCDMVEKPAKVAALMAQWLVNGWCRETIFNLKLPMKKRYEEVSHNLAYIQAQLDEHGINAQIQARQLYHDREEVTVHVRRIWAAVGGRRDER [P0ADR6] ; its total protein half-life in vivo = 11.6

Please fill in: total protein half-life in vivo reported for `MYQVVASDLDGTLLSPDHTLSPYAKETLKLLTARGINFVFATGRHHVDVGQIRDNLEIKSYMITSNGARVHDLDGNLIFAHNLDRDIASDLFGVVNDNPDIITNVYRDDEWFMNRHRPEEMRFFKEAVFQYALYEPGLLEPEGVSKVFFTCDSHEQLLPLEQAINARWGDRVNVSFSTLTCLEVMAGGVSKGHALEAVAKKLGYSLKDCIAFGDGMNDAEMLSMAGKGCIMGSAHQRLKDLHPELEVIGTNADDAVPHYLRKLYLS` = 10.2

Looking up MIVTIVGWLVLFVFLPNLMIIGTSFLTRDDASFVKMVFTLDNYTRLLDPLYFEVLLHSLNMALIATLACLVLGYPFAWFLAKLPHKVRPLLLFLLIVPFWTNSLIRIYGLKIFLSTKGYLNEFLLWLGVIDTPIRIMFTPSAVIIGLVYILLPFMVMPLYSSIEKLDKPLLEAARDLGASKLQTFIRIIIPLTMPGIIAGCLLVMLPAMGLFYVSDLMGGAKNLLIGNVIKVQFLNIRDWPFGAATSITLTIVMGLMLLVYWRASRLLNKKVELE [P0AFK4] , I found its total protein half-life in vivo recorded as 6.6

total protein half-life in vivo measured on MSKAGASLATCYGPVSADVIAKAENIRLLILDVDGVLSDGLIYMGNNGEELKAFNVRDGYGIRCALTSDIEVAIITGRKAKLVEDRCATLGITHLYQGQSNKLIAFSDLLEKLAIAPENVAYVGDDLIDWPVMEKVGLSVAVADAHPLLIPRADYVTRIAGGRGAVREVCDLLLLAQGKLDEAKGQSI [P0ABZ4] = 13.2

total protein half-life in vivo reported for this sequence `MIKWPWKVQESAHQTALPWQEALSIPLLTCLTEQEQSKLVTLAERFLQQKRLVPLQGFELDSLRSCRIALLFCLPVLELGLEWLDGFHEVLIYPAPFVVDDEWEDDIGLVHNQRIVQSGQSWQQGPIVLNWLDIQDSFDASGFNLIIHEVAHKLDTRNGDRASGVPFIPLREVAGWEHDLHAAMNNIQEEIELVGENAASIDAYAASDPAECFAVLSEYFFSAPELFAPRFPSLWQRFCQFYQQDPLQRLHHANDTDSFSATNVH` : 3.29
